Origin of measurements: PubChem BioAssay

molecular target: Follistatin (Homo sapiens) (UniProt P19883); test: follistatin binders on small-molecule microarrays, primary screen, biochemical, small-molecule microarray, 635/667 nm fluorescence (AID 1132); conditions: FST binding, 635 nm fluorescence, higher = more signal
Sequence (P19883 whole entry, looked up): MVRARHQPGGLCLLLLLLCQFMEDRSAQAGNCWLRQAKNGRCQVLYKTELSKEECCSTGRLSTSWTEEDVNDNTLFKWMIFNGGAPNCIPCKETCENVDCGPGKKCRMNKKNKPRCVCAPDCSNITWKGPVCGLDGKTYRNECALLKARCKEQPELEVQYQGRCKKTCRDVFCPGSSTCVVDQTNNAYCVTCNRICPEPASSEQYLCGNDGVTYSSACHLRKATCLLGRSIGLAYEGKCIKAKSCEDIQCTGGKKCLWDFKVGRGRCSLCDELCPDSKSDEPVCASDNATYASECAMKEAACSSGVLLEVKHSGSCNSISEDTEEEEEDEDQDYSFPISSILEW
Parameter composite z-score: see the listing below.
Output spec: single numeric token, no unit.

Completed entries (count: 4):
1) Cc1ccc(S(=O)(=O)N[C@H]2COC(=O)CC=C[C@H](C)COC(=O)N[C@@H](C)C(=O)CC=C[C@@H]2C)cc1 : 0.953
2) CCN1C(C)=C(C(=O)OC)[C@@H](c2ccccc2)N2C(=O)[C@@]3(C(=O)OC)O[C@@]12[C@@H]1C(=O)CCC[C@@H]13 : 1.29
3) NC(=O)NCC#Cc1ccc2c(c1)[C@]1(C(=O)N2)[C@H](C(N)=O)[C@H]2C(=O)O[C@H](c3ccccc3)[C@H](c3ccccc3)N2[C@@H]1c1ccccc1OCCO : 1.23
4) C=CCC(OC(C)=O)[C@@H]1[C@@H](N(Cc2cc3ccccc3o2)C(=O)Cc2ccc(F)cc2)c2cc(OCCCO)ccc2N1C(=O)c1ccc(-c2ccccc2)cc1 (some centres not stated) : 0.0166

Q: Report measured composite z-score on Follistatin (Homo sapiens) (UniProt P19883); entry: COCCCNC(=O)[C@@]1(Sc2ccc(C)cc2)CC(=O)N(Cc2cc(C(F)(F)F)cc(C(F)(F)F)c2)[C@@H]1c1ccc(CO)cc1I
A: -0.993

Q: Give measured composite z-score for COC(=O)C(CC#Cc1ccc2c(c1)[C@]1(C(=O)N2)[C@H](C(=O)N2CCCCCCC2)[C@H]2C(=O)O[C@H](c3ccccc3)[C@H](c3ccccc3)N2[C@@H]1c1ccc(O)cc1)C(=O)OC (Follistatin (Homo sapiens) (UniProt P19883)).
A: -0.408

Q: GET composite z-score | system: Follistatin (Homo sapiens) (UniProt P19883) | item: COc1cccc([C@H]2N[C@H](C(=O)O)CC[C@@H]2C)c1
A: 0.0807
